Entries and their fold over background values follow.
measurement.target: T1, SARS-CoV-2 Spike S1 domain ΔHV69/70, ΔY144, N501Y, A570D, D614G, P681H (SARS-CoV-2, UniProt P0DTC2 16-685)
T1 construct: domain: S1; also called U.K. (B.1.1.7); DHV69/70, DY144, N501Y, A570D, D614G, P681H
assay.overview: HTRF, soluble S1 construct
# value in fold over background; strip the unit string

Check out these entries, answers already filled in.
>  <binder>
PR194_00232 (antibody, V domains shown, also called IMM20190; PR194_00190) VH: EVQLVESGGGLVQPGGSLRLSCSASGFTVSSNYMSWVRQAPRKGLEWVSVIYAGGSTFYADSVKGRFTISRDNSKNTLLLQMNSLRAEDTAVYYCARDRGGYLDYWGQGTLVTVSS VL: DIQMTQSPSSLSASVGDRVTITCRASQGISNYLAWYQQKPGKVPKLLIYAASTLQSGVPSRFSGSGSGTDFTLTISSLQPEDVATYYCQKYNSAPGLTFGGGTKVEIK

>  <assay.value>
3.91

$$$$
>  <binder>
PR194_00292 (antibody, V domains shown) VH: QVQLQQWGAGLLKPSETLSLTCAVYGGSLSGYYWSWIRQPPGKGLEWIGEINHSGSTNHNPSLKSRVSISVDTSKNQFSLKLSSVTAADTAVYYCARAWKYSSSWYSGGIYYGMDVWGQGTTVTVSS VL: QSALTQPASVSGSPGQSITISCSGTSSDVGSYNLVSWYQQHPGKAPKLMIYEGTKRPSGVSNRFSSSKSGNTASLTISGLQAEDEADYYCCSYAGFSTWVFGGGTKLTVL

>  <assay.value>
2.37

$$$$
>  <binder>
PR199_00255 (antibody, V domains shown, also called IMM20279; PR190_00255) VH: QVQLVESGGGVVQPGRSLRLSCAASGFTFSTYGMHWVRQAPGKGLEWVAVIWYNGINKHYADSVKGRFTISRDNSKNTLYLQMSSLRVEDTAVYYCARDWGTLTTLFDFWGQGTLVTVSS VL: DIQMTQSPSSLSASVGERATITCRASQSISSHLNWYQQKPGKAPKFLIYGASSLQSGVPSRFSGSGSGTDFTLTISSLQPEDFATYYCQQSYSTPPWTFGQGTKVEIK

>  <assay.value>
7.29

$$$$
>  <binder>
PR201_00151 (antibody, V domains shown) VH: RVTLRESGPALVKPTQTLTLTCTFSGFSLNTSGMCVSWIRQPPGKALEWLARIDWDDDKYYSTSLETRLTISKDTSKNQVVLTMTNLDPVDTGTYYCARISIQSRGGGADYWGQGTLVTVSS VL: DIQMTQSPSSLSASVGDRVTITCRASQSISSYLHWYQQKSGKAPKLLIFVASTLQSGVPSRFSGSGSGTDFTLTISSLQPEDSAAYYCQQSYSPPWTFGQGTKVEIK

>  <assay.value>
4.22

$$$$
>  <binder>
PR193_00018 (antibody, V domains shown, also called IMM20184; IMM200184) VH: EVQLVESGGGLVQPGGSLRLSCSASGFTFSSFWMSWVRQAPGKGLEWVATIREDGSEKYYVDSVKGRFSISRDNAKNSLYLQMNSLRAEDTAVYYCARSKWLRGSFDYWGQGTLVTVSS VL: NFMLTQPHSVSESPGKTVTISCTRRSGSIASNYVQWYQQRPGSAPTTVIYEDNQRPSGVPDRFSGSIDSSSNSASLTISGLQTEDEADYYCQSYDSSNPPGASWVFGGGTKLTVL

>  <assay.value>
4.15

$$$$

query: Any idea what fold over background was measured for PR200_00622 (antibody, V domains shown, also called IMM20253; PR200_00253) VH: QVQLVESGGGVVQPGRSLRLSCTASGFTFSTYGMHWVRQAPGKGLEWVAVISYDGSSKHYAESVKGRFTISRDNSNNTLYLQMNRLRAEDTAVYYCARDGQPPGWGNYFDYWGQGTLVTVAS VL: SYVLTQPPSVSVAPGKTARITCGGNGIGSKSVYWYQQKPGQAPEVVVYDDSDRPSGIPERFSGSNSGNTATLTISRVEAGDEADYYCQVWDSSSDPWVFGGGTKLTVL ?
result: 5.92

query: Now the binder PR197_00647 (antibody, V domains shown) VH: QVQLVESGGGVVQPGRSLRLSCAASGFTFSSYAMHWVRQAPGKGLQWVTLISYDGGDKYYADSVRGRFTISRDNSKNTLYLQMNSLRTEDTAVYYCARDRPQTGDWFPPIPTGVLDVWGQGTTVTVSS VL: DIQMTQSPSSLSASVGDRVTITCRASQGISNYLAWFQQKPGKAPKSLIYAASSLQSGVPSRFSGSESGTDFTLTISSLQPEDFATYYCQQYHSYPITFGQGTRLEIK
result: 1.1

Values from patent US20220235118A1
